- Tested on: SNB-19 CNS
- TEST: NCI-60 one-dose screen, 48 h
- STUDY CONDITIONS: 10 µM unless noted
This is part of a sample that, as a whole, favours compounds with a hit. Of some 83,000 tested, about 20% had one in any assay. Activity calls are given as the source filed them. Rule for the calls: active = growth percent below 10; inactive = the rest.
Permitted responses: active, inactive

Task: What classification did CN(C)CCOc1ccc(/C(=C(/CCCl)c2ccccc2)c2ccccc2)cc1 end up with in this test?
Output: inactive

Task: What classification did Cc1ccccc1-n1nnc(C(=O)Nc2nc3ccc(F)cc3s2)c1C end up with in this test?
Output: inactive

Task: What classification did CC1(C)CC[C@]23CC[C@]4(C)[C@H](CC[C@@H]5[C@@]6(C)C/C(=C/c7ccncc7)C(=O)C(C)(C)[C@@H]6CC[C@]54C)[C@H]2[C@H]1OC3=O end up with in this test?
Output: inactive

Task: What classification did CC/C=C(\C)C(CCC)(CN=O)C(=O)OCC (stereo not given) end up with in this test?
Output: inactive

Task: What classification did CCOc1cccc2c(NC(C)CCCN(CC)CC)c(C)cnc12 (stereo not given) end up with in this test?
Output: inactive

Task: What classification did O=C(Nc1ccc(F)cc1)c1ccccc1 end up with in this test?
Output: inactive

Task: What classification did C#CCNC(=O)CC[C@@H](C)[C@H]1CC[C@H]2[C@@H]3CC[C@@H]4CC(=O)CC[C@]4(C)[C@H]3CC[C@]12C end up with in this test?
Output: inactive

Task: What classification did C#CCC(C(=O)OCC)C(=O)OCC end up with in this test?
Output: inactive

Task: What classification did CCCCOC(=O)c1c(C)[nH]c(/C=C2\N=C(c3ccc[nH]3)C=C2OC)c1C end up with in this test?
Output: inactive

Task: What classification did COc1ccc(C2CC(c3ccc4ccccc4c3)=NN2c2nc(O)c(C3=c4cc(OC)ccc4=NC3=O)s2)cc1 (stereo not given) end up with in this test?
Output: active

----------
- Tested on: OVCAR-3 ovarian
- TEST: NCI-60 one-dose screen, 48 h
- STUDY CONDITIONS: 10 µM unless noted
- Protocol: Growth inhibition of the OVCAR-3 human tumor cell line is measured as a screen for anti-cancer activity. Cells are grown in 96 well plates and exposed to the test compound for 48 hours. Compounds are tested at a single concentration, which is 10^-5 M for most compounds. The reported endpoint is percent growth (GI% or GIPRCNT), where numbers from 0 - 100% represent growth inhibition, and numbers from -100% - 0 represent cell death. For example, a value of 40 represents 60% growth inhibition. […]
This is part of a sample that, as a whole, favours compounds with a hit. Of some 83,000 tested, about 20% had one in any assay. Activity calls are given as the source filed them. How the source made its calls: active means growth percent below 10; inactive means the rest.
Permitted responses: 1.0 for active, 0.0 for inactive

Task: What classification did CCOC(=O)n1cc(C2=C(c3ccc(OC)c(OC)c3)COC2=O)c2ccccc21 end up with in this test?
Output: 1.0

Task: What classification did Cc1ccc(NC(=O)N[C@@H](Cc2cc(F)cc(F)c2)C(=O)N[C@@H]2C(=O)N3CCC[C@H]3C(=O)N3CCOC[C@H]3C(=O)N[C@@H](C)C(=O)N3C[C@H](C)C[C@H]3C(=O)O[C@H]2C)cc1 end up with in this test?
Output: 0.0

Task: What classification did CCNC(=O)N1CCc2c(Cl)c3c(c(OC)c2[C@@H]1[C@H]1OCc2c1ccc(OC)c2OC)OCCO3 end up with in this test?
Output: 1.0

Task: What classification did COc1cc(C)cc2oc3oc(=N)c(C(=O)c4ccccc4)cc3c(=O)c12 end up with in this test?
Output: 0.0

Task: What classification did O=C(O)c1cn(C2CC2)c2cc(N3CCN(Cc4c(O)ccc5ccccc45)CC3)c(F)cc2c1=O end up with in this test?
Output: 1.0

Task: What classification did COc1cc2c(c(Br)c1N)-c1cc(Br)c(N)cc1C2=O end up with in this test?
Output: 0.0

Task: What classification did CO[C@H]1CC[C@@]2(C)C(=CC[C@H]3[C@@H]4C[C@H](O)C[C@@]4(C)CC[C@@H]32)C1 end up with in this test?
Output: 0.0

Task: What classification did COc1ccc(-c2cc(-c3ccc(OC)c(OC)c3)nc(SCCCCCC(=O)NO)n2)cc1 end up with in this test?
Output: 0.0

----------
- Tested on: HS 578T breast
- TEST: NCI-60 one-dose screen, 48 h
- STUDY CONDITIONS: 10 µM unless noted
This is part of a sample that, as a whole, favours compounds with a hit. Of some 83,000 tested, about 20% had one in any assay. The source made the active and inactive calls. Rule for the calls: active = growth percent below 10; inactive = the rest.
Permitted responses: active, inactive

Task: What classification did CCOC(=O)c1nn(C2CCCCO2)c2ccc(NC(=O)CSc3nc4ccccc4c(=O)[nH]3)cc12 (stereo not drawn) end up with in this test?
Output: inactive

Task: What classification did COc1ccc(-c2cc(-c3ccccc3)nc(SCCCCCC(=O)NO)n2)cc1 end up with in this test?
Output: inactive

Task: What classification did O=C(O)c1cn(C2CC2)c2cc(N3CCN(Cc4cc(Cl)ccc4O)CC3)c(F)cc2c1=O end up with in this test?
Output: inactive

Task: What classification did [2H]C1([2H])CCN(C(=O)C2CC2)c2cc(NS(=O)(=O)c3ccc(-c4cccc(C(N)=O)c4)cc3)ccc21 end up with in this test?
Output: inactive

Task: What classification did Cc1cccc(C[C@H](NC(=O)Nc2ccc(Cl)cc2F)C(=O)N[C@@H]2C(=O)N3C[C@H](O)C[C@H]3C(=O)N3CCN(C)C[C@H]3C(=O)N[C@@H](C)C(=O)N3C[C@H](C)C[C@H]3C(=O)O[C@H]2C)c1 end up with in this test?
Output: inactive

Task: What classification did N#C/C(C(=O)c1ccccc1)=C1/C(=O)Nc2ccc(F)cc21 end up with in this test?
Output: inactive

Task: What classification did COc1ccc(C2CC(c3ccc4ccccc4c3)=NN2c2nc(O)c(C3=c4cc(OC)ccc4=NC3=O)s2)cc1 (stereo not drawn) end up with in this test?
Output: active

Task: What classification did COc1cc2c(=O)[nH]c3cc([N+](=O)[O-])ccc3c2cc1[N+](=O)[O-] end up with in this test?
Output: inactive

Task: What classification did Cc1ccc(NC(=O)N[C@@H](Cc2cc(F)cc(F)c2)C(=O)N[C@@H]2C(=O)N3CCC[C@H]3C(=O)N3CCCC[C@H]3C(=O)N[C@@H](C)C(=O)N3C[C@H](C)C[C@H]3C(=O)O[C@H]2C)cc1 end up with in this test?
Output: inactive

Task: What classification did O=C1/C(=C\c2cccn2Cc2ccccc2)c2ccccc2N1c1c(Cl)cccc1Cl end up with in this test?
Output: inactive

Task: What classification did CCCCOC(=O)c1c(C)[nH]c(/C=C2\N=C(c3ccc[nH]3)C=C2OC)c1C end up with in this test?
Output: active

Task: What classification did COc1ccc(-c2cc(-c3ccc(OC)c(OC)c3)nc(SCCCCCC(=O)NO)n2)cc1 end up with in this test?
Output: inactive

Task: What classification did Cc1ccc(-c2cn(C/C=C3\C=CN(S(=O)(=O)c4ccccc4)CC3)nn2)cc1 end up with in this test?
Output: inactive

Task: What classification did C=C(CC(=O)OC)C(C)=O end up with in this test?
Output: inactive

Task: What classification did COc1cc2c(c(Br)c1N)-c1cc(Br)c(N)cc1C2=O end up with in this test?
Output: inactive

Task: What classification did Cn1cc(-c2nnc(-c3ccccc3)s2)c2cc(Br)cnc21 end up with in this test?
Output: inactive

Task: What classification did O=C(NCCCNC(=O)OCc1ccc2cccc(O)c2n1)OCc1ccc2cccc(O)c2n1 end up with in this test?
Output: inactive

Task: What classification did CN(C)c1ccc(N=Nc2ccc3ccccc3c2)cc1 end up with in this test?
Output: inactive

Task: What classification did CC1(C)CC[C@]23CC[C@]4(C)[C@H](CC[C@@H]5[C@@]6(C)C/C(=C/c7cccnc7)C(=O)C(C)(C)[C@@H]6CC[C@]54C)[C@H]2[C@H]1OC3=O end up with in this test?
Output: inactive

Task: What classification did COc1ccc2nc3cc(Cl)ccc3c(Nc3ccc(O)cc3)c2c1 end up with in this test?
Output: inactive

Task: What classification did NC(=S)Cc1ccccc1 end up with in this test?
Output: inactive

Task: What classification did C=C(C)[C@@H]1CC[C@]2(C(=O)NCCNCCNC(=O)OC(C)(C)C)CC[C@]3(C)[C@H](CC[C@@H]4[C@@]5(C)CCC(=O)C(C)(C)[C@@H]5CC[C@]43C)[C@@H]12 end up with in this test?
Output: inactive

Task: What classification did C=C(C)[C@@H]1CC[C@]2(C(=O)NCCNCCNCCN)CC[C@]3(C)[C@H](CC[C@@H]4[C@@]5(C)CC[C@H](O)C(C)(C)[C@@H]5CC[C@]43C)[C@@H]12 end up with in this test?
Output: active

Task: What classification did CCn1cc(-c2[nH]c(=S)ncc2-c2ccc(Cl)cc2)c(-c2ccc(Br)cc2)n1 end up with in this test?
Output: inactive

Task: What classification did Cc1cc(-c2ccc(N=Nc3c(S(=O)(=O)O)cc4cc(S(=O)(=O)O)cc(N)c4c3O)c(C)c2)ccc1N=Nc1cc(S(=O)(=O)O)c2ccccc2c1O end up with in this test?
Output: inactive

Task: What classification did CC[C@]12C=CCN3CC[C@@]4(c5ccc(OC)cc5N(C)[C@H]4[C@@](O)(C(=O)OC)[C@@H]1OC(=O)CCC(=O)N[C@H](Cc1c[nH]c4ccccc14)C(=O)OC)[C@@H]32 end up with in this test?
Output: active

Task: What classification did COc1cc(NN=C(c2ccc(O)cc2)c2ccc(O)cc2)c([N+](=O)[O-])cc1[N+](=O)[O-] end up with in this test?
Output: inactive

Task: What classification did CCCc1cc2cc(-n3nc(C)c4c3CC(C)(C)CC4=O)cc(NC3CCSCC3)c2c(=O)[nH]1 end up with in this test?
Output: inactive

Task: What classification did COc1ccc(-c2cc(-c3ccc(Cl)cc3)nc(SCCCCCCC(=O)NO)n2)cc1 end up with in this test?
Output: inactive

Task: What classification did CCCCC(CC)COC(=O)C[N+](C)(C)CCOC(c1ccccc1)c1ccccc1 (stereo not drawn) end up with in this test?
Output: inactive

Task: What classification did CC1(C)CC[C@]23CC[C@]4(C)[C@H](CC[C@@H]5[C@@]6(C)C/C(=C/c7ccncc7)C(=O)C(C)(C)[C@@H]6CC[C@]54C)[C@H]2[C@H]1OC3=O end up with in this test?
Output: active

Task: What classification did COc1ccc(C2=C(c3cn(C)c4ccccc34)C(=O)OC2)cc1OC end up with in this test?
Output: inactive

Task: What classification did Cc1cccc(/C=C2\N=C(c3ccccc3)N(c3ccc(S(N)(=O)=O)cc3)C2=O)c1 end up with in this test?
Output: inactive

Source: PubChem BioAssay (NCI)
